- ASSAY_TARGET: PsrA
- ASSAY_OVERVIEW: isothermal titration calorimetry, one-site model
- CONDITION_PARAMETERS: 50 mM PBS pH 7.4, 25°C; 30 μM PsrA titrated with 0.3 mM ligand; effector, no DNA
MEASURED_METRIC: Kd (µM)

SMILES_STRING	ENDPOINT_RESULT
O=C(O)[C@@H]1CCCN1	13.6
